- target.under.test: FicD^L258D (Homo sapiens, UniProt Q9BVA6, L258D)
- Construct: soluble ER luminal domain (residues 105 to 458) of wild-type human FicD and three mutants; 6xHis-Sumo (N, cleaved yes); made in house; host or cells: Rosetta(DE3) E. coli
- Sequence (Q9BVA6 105-458 L258D): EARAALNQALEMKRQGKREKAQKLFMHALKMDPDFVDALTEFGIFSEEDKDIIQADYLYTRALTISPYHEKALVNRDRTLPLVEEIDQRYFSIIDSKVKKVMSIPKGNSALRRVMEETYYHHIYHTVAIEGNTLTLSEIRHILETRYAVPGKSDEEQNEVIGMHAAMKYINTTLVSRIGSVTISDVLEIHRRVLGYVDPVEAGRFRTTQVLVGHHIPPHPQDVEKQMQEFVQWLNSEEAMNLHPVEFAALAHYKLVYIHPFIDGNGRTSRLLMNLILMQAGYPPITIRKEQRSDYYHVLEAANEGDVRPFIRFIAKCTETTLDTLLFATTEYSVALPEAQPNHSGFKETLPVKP
- protocol.text: MIDAS metabolite screen, FicD^L258D
- Type: binding
- conditions: cutoff Q < 0.05 and |Log2 corrected fold change| > 2, metabolites 5 µM
test.readout: MIDAS protein-metabolite interaction (enrichment/depletion)

{"columns": ["compound", "target.under.test", "reported.measurement"],
 "data": [
  ["CC(C)=CCC/C(C)=C/COP(=O)(O)OP(=O)(O)O [GPP, geranyl-pyrophosphate]", "FicD^L258D (Homo sapiens, UniProt Q9BVA6, L258D)", "significantly enriched"],
  ["CC(C)=CCC/C(C)=C/CC/C(C)=C/COP(=O)(O)OP(=O)(O)O [FPP, farnesyl-pyrophosphate]", "FicD^L258D (Homo sapiens, UniProt Q9BVA6, L258D)", "significantly enriched"],
  ["N[C@@H](Cc1ccc(Oc2ccc(O)c(I)c2)c(I)c1)C(=O)O", "FicD^L258D (Homo sapiens, UniProt Q9BVA6, L258D)", "significantly enriched"]
]}

----------
- target.under.test: FicD^WT (Homo sapiens)
- Construct: soluble ER luminal domain (residues 105 to 458) of wild-type human FicD; 6xHis-Sumo (N, cleaved yes); made in house; host or cells: Rosetta(DE3) E. coli
- Sequence (Q9BVA6 105-458): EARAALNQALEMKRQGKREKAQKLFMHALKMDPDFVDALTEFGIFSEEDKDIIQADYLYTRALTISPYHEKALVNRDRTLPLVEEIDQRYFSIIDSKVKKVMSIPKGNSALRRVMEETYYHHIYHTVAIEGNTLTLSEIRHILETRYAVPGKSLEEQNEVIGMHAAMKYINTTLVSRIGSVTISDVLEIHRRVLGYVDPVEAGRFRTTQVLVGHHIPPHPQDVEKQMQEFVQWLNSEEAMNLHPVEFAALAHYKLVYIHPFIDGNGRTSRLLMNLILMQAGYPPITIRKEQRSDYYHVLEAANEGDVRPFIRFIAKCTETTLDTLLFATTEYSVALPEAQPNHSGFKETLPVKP
- protocol.text: In vitro AMPylation of Δ26hBiP^T229A by FicD^WT (Western blot)
- Assay type: biochemical
- conditions: 100 μM metabolite, 500 μM ATP, 5 mM MgCl2
test.readout: inhibition of AMPylation of Δ26hBiP^T229A by FicD^WT

{"columns": ["compound", "reported.measurement"],
 "data": [
  ["CC(C)=CCC/C(C)=C/COP(=O)(O)O [GMP, geranyl-monophosphate]", "did not"],
  ["CC(C)=CCOP(=O)(O)OP(=O)(O)O [DMAPP, dimethylallyl-pyrophosphate]", "did not"],
  ["CC(O)(CCOP(=O)(O)OP(=O)(O)O)CC(=O)O (stereo not drawn) [MVAPP, mevalonate-pyrophosphate]", "did not"]
]}

----------
- target.under.test: FicD^L258D (Homo sapiens, UniProt Q9BVA6, L258D)
- Construct: soluble ER luminal domain (residues 105 to 458) of wild-type human FicD and three mutants; 6xHis-Sumo (N, cleaved yes); made in house; host or cells: Rosetta(DE3) E. coli
- protocol.text: Isothermal titration calorimetry (ITC) with Δ104hFicD^L258D
- Format: binding
- conditions: 4 mM MgCl2, 20 °C; 1σ error interval in parenthesis; read-out: Kd (ITC), Replicate 3
test.readout: Kd

Fill in: FicD^L258D (Homo sapiens, UniProt Q9BVA6, L258D) Kd for CC(C)=CCC/C(C)=C/CC/C(C)=C/CO[P@@](=O)(O)OP(=O)(O)O (stereo in doubt) [FPP, farnesyl-pyrophosphate] = 45.2 nM

----------
- target.under.test: FicD^L258D (Homo sapiens, UniProt Q9BVA6, L258D)
- Construct: soluble ER luminal domain (residues 105 to 458) of wild-type human FicD and three mutants; 6xHis-Sumo (N, cleaved yes); made in house; host or cells: Rosetta(DE3) E. coli
- protocol.text: Isothermal titration calorimetry (ITC) with Δ104hFicD^L258D
- Format: binding
- conditions: 4 mM MgCl2, 20 °C; 1σ error interval in parenthesis; read-out: Kd (ITC), Replicate 2
test.readout: pKd
The quantity pKd is defined as the negative base-10 logarithm of the molar concentration.

# pKd (molecule: CC(C)=CCC/C(C)=C/CC/C(C)=C/CO[P@@](=O)(O)OP(=O)(O)O (stereo in doubt) [FPP, farnesyl-pyrophosphate] ) is 7.59

----------
- target.under.test: FicD^L258D (Homo sapiens, UniProt Q9BVA6, L258D)
- Construct: soluble ER luminal domain (residues 105 to 458) of wild-type human FicD and three mutants; 6xHis-Sumo (N, cleaved yes)
- protocol.text: Differential scanning fluorimetry (DSF) thermal shift with FicD^L258D
- conditions: FicD^L258D, 5 mM MgCl2; read-out: EC50 of DSF dose-response (ΔTm)
Entries and their pEC50
The quantity pEC50 is defined as the negative base-10 logarithm of the molar concentration.

# pEC50 (molecule: Nc1ncnc2c1ncn2[C@@H]1O[C@H](COP(=O)(O)OP(=O)(O)O)[C@@H](O)[C@H]1O ) is 3.43

# pEC50 (molecule: CC(C)=CCC/C(C)=C/COP(=O)(O)OP(=O)(O)O [GPP, geranyl-pyrophosphate] ) is 4.83

# pEC50 (molecule: CC(C)=CCC/C(C)=C/CC/C(C)=C/CO[P@@](=O)(O)OP(=O)(O)O (stereo in doubt) [FPP, farnesyl-pyrophosphate] ) is 5.02

# pEC50 (molecule: Nc1ncnc2c1ncn2[C@H]1C[C@H](O)[C@@H](COP(=O)(O)OP(=O)(O)OP(=O)(O)O)O1 ) is 3.28

----------
- target.under.test: FicD^WT (Homo sapiens, UniProt Q9BVA6)
- Construct: soluble ER luminal domain (residues 105 to 458) of wild-type human FicD; 6xHis-Sumo (N, cleaved yes); made in house; host or cells: Rosetta(DE3) E. coli
- protocol.text: In vitro deAMPylation of Δ26hBiP^T229A-AMP by FicD^WT (Western blot)
- Format: biochemical
- conditions: 100 μM metabolite, 5 mM MgCl2
test.readout: inhibition of deAMPylation activity of FicD^WT

Record excerpt, results attached:
{"columns": ["molecule", "target.under.test", "reported.measurement"],
 "data": [
  ["CC(C)=CCC/C(C)=C/COP(=O)(O)O [GMP, geranyl-monophosphate]", "FicD^WT (Homo sapiens, UniProt Q9BVA6)", "did not affect"],
  ["CC(C)=CCOP(=O)(O)OP(=O)(O)O [DMAPP, dimethylallyl-pyrophosphate]", "FicD^WT (Homo sapiens, UniProt Q9BVA6)", "did not affect"],
  ["CC(C)=CCC/C(C)=C/CO [geraniol]", "FicD^WT (Homo sapiens, UniProt Q9BVA6)", "did not affect"],
  ["CC(C)=CCC/C(C)=C\\CC/C(C)=C\\COP(=O)(O)O [FMP, farnesyl-monophosphate]", "FicD^WT (Homo sapiens, UniProt Q9BVA6)", "did not affect"],
  ["CC(O)(CCOP(=O)(O)OP(=O)(O)O)CC(=O)O (centres unmarked) [MVAPP, mevalonate-pyrophosphate]", "FicD^WT (Homo sapiens, UniProt Q9BVA6)", "did not affect"],
  ["CC(C)=CCC/C(C)=C/COP(=O)(O)OP(=O)(O)O [GPP, geranyl-pyrophosphate]", "FicD^WT (Homo sapiens, UniProt Q9BVA6)", "inhibited"],
  ["CC(C)=CCC/C(C)=C/CC/C(C)=C/CO [farnesol]", "FicD^WT (Homo sapiens, UniProt Q9BVA6)", "did not affect"]
]}

Note: attention shifts to another entry.
# inhibition of deAMPylation activity of FicD^WT (molecule: CC(C)=CCC/C(C)=C/CC/C(C)=C/COP(=O)(O)OP(=O)(O)O [FPP, farnesyl-pyrophosphate] ) is inhibited

----------
- target.under.test: FicD^L258D (Homo sapiens, UniProt Q9BVA6, L258D)
- Construct: soluble ER luminal domain (residues 105 to 458) of wild-type human FicD and three mutants; 6xHis-Sumo (N, cleaved yes); made in house; host or cells: Rosetta(DE3) E. coli
- protocol.text: Differential scanning fluorimetry (DSF) thermal shift with FicD^L258D
- Assay type: binding
- conditions: presence of 5 mM MgCl2
test.readout: binding to FicD^L258D by DSF

{"columns": ["molecule", "binding to FicD^L258D by DSF"],
 "data": [
  ["CC(C)=CCC/C(C)=C\\CC/C(C)=C\\COP(=O)(O)O [FMP, farnesyl-monophosphate]", "did not bind"],
  ["CC(C)=CCC/C(C)=C/COP(=O)(O)O [GMP, geranyl-monophosphate]", "did not bind"],
  ["CC(O)(CCOP(=O)(O)OP(=O)(O)O)CC(=O)O (stereo not shown) [MVAPP, mevalonate-pyrophosphate]", "did not bind"],
  ["CC(C)=CCC/C(C)=C/CC/C(C)=C/CO", "did not bind"],
  ["CC(C)=CCC/C(C)=C/CO", "did not bind"]
]}

Fill in: FicD^L258D (Homo sapiens, UniProt Q9BVA6, L258D) binding to FicD^L258D by DSF for Nc1ncnc2c1ncn2[C@@H]1O[C@H](COP(=O)(O)OP(=O)(O)O)[C@@H](O)[C@H]1O = binding

Fill in: FicD^L258D (Homo sapiens, UniProt Q9BVA6, L258D) binding to FicD^L258D by DSF for CC(C)=CCC/C(C)=C/CC/C(C)=C/COP(=O)(O)OP(=O)(O)O [FPP, farnesyl-pyrophosphate] = bound

Fill in: FicD^L258D (Homo sapiens, UniProt Q9BVA6, L258D) binding to FicD^L258D by DSF for Nc1ncnc2c1ncn2[C@H]1C[C@H](O)[C@@H](COP(=O)(O)OP(=O)(O)OP(=O)(O)O)O1 = binding

Fill in: FicD^L258D (Homo sapiens, UniProt Q9BVA6, L258D) binding to FicD^L258D by DSF for CC(C)=CCOP(=O)(O)OP(=O)(O)O [DMAPP, dimethylallyl-pyrophosphate] = did not bind
